- System: MDCK-MM cells
- method: MTT viability assay, MDCK-MM (non-functional Pgp)
- Assay type: cell-based, canine
- conditionSummary: Canis lupus familiaris, 72 h, MTT 72 h, presence of 1 µM Tariquidar (values in brackets)
Below, each of the molecules is paired with its reported IC50 value.
quantity: IC50 (µM)

• Oc1cccc2cccnc12 [Compound Q-1, 8-Hydroxyquinoline] = 3.59
• Oc1c(CN2CCOCC2)ccc2cccnc12 = 9.01
• Oc1c(CN2CCCCC2)ccc2cccnc12 = 8.45
• Oc1c(CNCc2ccccc2F)cc(Cl)c2cccnc12 = 6.27

---

- System: MDCK cells
- method: MTT viability assay, MDCK
- Type: cell-based, canine
- conditionSummary: Canis lupus familiaris, 72 h, MTT 72 h, presence of 1 µM Tariquidar (values in brackets)
quantity: IC50 (µM)

• Oc1c(CN2CCCCC2)ccc2cccnc12 = 10.2
• Oc1c(CN2CCOCC2)ccc2cccnc12 = 11.1
• Oc1cccc2cccnc12 [Compound Q-1, 8-Hydroxyquinoline] = 3.08
• Oc1c(CNCc2ccccc2F)cc(Cl)c2cccnc12 = 5.92
